- PROCEDURE_DETAILS: Toxicity liver stage against HepG2, at 10uM
- Assay type: cell-based
- Set-up: test concentration 10 uM, cell line HepG2-A16-CD81EGFP
- ASSAY_CONTEXT: human, HepG2-A16-CD81EGFP cells; read-out: INHIBITION
PROPERTY_LABEL: cytotoxicity at 10 µM (%)
Numbers only, in %.

Worked cases, cytotoxicity at 10 µM given:
compound=CC[C@@H](CO)NC(=O)c1cc(COc2ccc(OC)cc2Cl)[nH]n1 value_unit=% recorded_result=-34.4
compound="CC(O)CN1CCN(C(=O)c2ccn(-c3cccc(Cl)c3)n2)CC1 (centres undefined)" value_unit=% recorded_result=-6.8
compound=O=c1[nH]nc2n1CCN(S(=O)(=O)c1ccccc1Cl)C2 value_unit=% recorded_result=3.61
compound=COCCN(Cc1cccc(O)c1)CC1CC1 value_unit=% recorded_result=12.7
compound=Cn1ccc(C(=O)Nc2cccc(-c3ccc4c(c3)CCO4)n2)cc1=O value_unit=% recorded_result=-1.26

Items follow; give cytotoxicity at 10 µM for each.
1. CCc1nc(CN(C)C2CCN(CCC(=O)N3CCCCC3)C2)no1 (centres undefined)
2. COc1ccc([C@@H]2CN(Cc3ccncc3)C[C@H]2N(C)C)cc1
3. c1ccc(CNc2cc(C3CCCNC3)ccn2)nc1 (centres undefined)

(A)
[-13.4, -2.52, -0.565]

Parameters: items (list). Returns: cytotoxicity at 10 µM for each item.
1. CCCc1nnc(N2CCC(C3CCN(C)CC3)CC2)o1
2. Cc1cccn2c(CNC(C)CO)cnc12 (centres undefined)
3. CN1CC(=O)N(c2cccc(F)c2)CC12CCN(Cc1cnn(C)c1)C2 (centres undefined)
4. CCn1cncc1CN1CCc2nc3sccc3c(=O)n2CC1
5. CCCn1ncc2c(C(=O)Nc3cnn(CC)c3C)cc(C3CC3)nc21
6. Nc1cc(C(=O)NCC2CCN(CCc3ccccc3)C2)ccn1 (centres undefined)
7. COCC1c2nnn(C)c2CCN1C(=O)c1ccc(OC)c(F)c1 (centres undefined)
8. CCOc1cc(C(=O)N(C)C)ccc1NC(=O)C(C)c1ccsc1 (centres undefined)

(A)
[-11.7, -2.78, -5.87, -2.55, -0.842, -5.47, -105, 5.61]
